- Test system: MDA-MB-231
- measurement notes: Cytotoxicity against Homo sapiens (human) MDA-MB-231 cells assessed as growth inhibition by MTT assay
- Type: functional, cell-based
measurement type: pIC50
In simple prose, pIC50 is minus the logarithm base ten of a concentration in moles per litre.

Exam item: Please give measured pIC50 of the following entry: Cc1[nH]c(/C=C2\C(=O)N(CCCN(C)C)c3ccc(Cl)cc32)c(C)c1C(=O)N1CCOCC1
Marked response: 5.01

Exam item: Please give measured pIC50 of the following entry: CCOC(=O)c1c(C)[nH]c(/C=C2\C(=O)N(CCCN(C)C)c3ccc(F)cc32)c1C
Marked response: 5.41

Exam item: Please give measured pIC50 of the following entry: CC/C(=C1/C(=O)N(CCCN(C)C)c2ccc(F)cc21)c1ccc[nH]1
Marked response: 4.97

Exam item: Please give measured pIC50 of the following entry: Cc1[nH]c(/C=C2\C(=O)N(CCCN(C)C)c3ccc(F)cc32)c(C)c1C(=O)N1CCOCC1
Marked response: 4.83

Exam item: Please give measured pIC50 of the following entry: CN(C)CCCN1C(=O)C(=C(c2ccccc2)c2ccccc2)c2cc(F)ccc21
Marked response: 5.18

Exam item: Please give measured pIC50 of the following entry: CN(C)CCCN1C(=O)/C(=C(/c2ccccc2)c2ccc[nH]2)c2cc(F)ccc21
Marked response: 5.16

Exam item: Please give measured pIC50 of the following entry: C/C(=C1/C(=O)N(CCCN(C)C)c2ccc(F)cc21)c1ccc[nH]1
Marked response: 5.23

Exam item: Please give measured pIC50 of the following entry: CCOC(=O)c1c(C)[nH]c(/C=C2\C(=O)N(CCCN(C)C)c3ccc(Cl)cc32)c1C.Cl
Marked response: 5.83
